Read-out: Vascular cell adhesion molecule 1 (VCAM1), VCAM1 (gene 7412)
Experiment: BSK_CASM3C_VCAM1: BioMAP Diversity Plus: CASM3C Assay for Vascular cell adhesion molecule 1 (VCAM1) Biomarker Activity (AID 2283055);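 note: VCAM-1 protein level quantified by ELISA on the cells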
Conditions: primary human coronary artery smooth muscle cells; actives raise or lower the signal
The source made the active and inactive calls. Rule for the calls: active = hit-call score of the fitted dose curve at least 0.9, where 1 is the maximum; inactive = score below 0.9.
Write down the outcome that applies. Available outcomes: true for active, false for inactive

Example cases with answers are listed next.
>>> group_label("Cc1c2ccccc2c(C)c2c1ccc1ccccc12")
"false"
>>> group_label("CCCCCc1ccc(N)cc1")
"false"
>>> group_label("CC1=CC(=O)/C(=C(/C)O)C(=O)O1")
"false"
>>> group_label("CO[C@H]1/C=C/O[C@@]2(C)Oc3c(C)c(O)c4c(O)c(c(/C=N/N5CCN(C)CC5)c(O)c4c3C2=O)NC(=O)/C(C)=C\\C=C\\[C@H](C)[C@H](O)[C@@H](C)[C@@H](O)[C@@H](C)[C@H](OC(C)=O)[C@@H]1C")
"false"
>>> group_label("Cc1ccc2oc(CN(Cc3ccccc3)C(=O)Nc3c(F)cc(F)cc3F)c(-c3ccc(Cl)cc3)c2c1")
"false"
>>> group_label("CCCCCCCCCCCCO")
"true"

Prompt: Short answer needed: outcome of this test for Clc1cc(Cl)c2c(c1)N=C1CCCCCN1C2 ?
Response: false
